# assay.system: DYRK1A (Homo sapiens, UniProt Q13627)
# Construct: GST-fusion or His-tag (not specified per kinase); purchased ProQinase GmbH; host or cells: Sf9 insect cells or E. coli (not specified per kinase)
# test.method.notes: Radiometric protein kinase assay (33PanQinase Activity Assay), DYRK1A
# Type: biochemical
# assay.context: class by IC50 on DYRK1A, from dose-response curves; read-out: Potency Class DYRK1A
Counter-ions that a name gives are not always drawn.
test.readout: IC50

> print(dat)
                                    molecule                           assay.system  assay.value
 1  CO[C@H]1CCC[C@@H]1NC1=N/C(=C\c2ccc3nccnc3c2)C(=O)N1  DYRK1A (Homo sapiens, UniProt Q13627)      > 50 nM
 2  CN1C(=O)/C(=C/c2ccc3nccnc3c2)N=C1NC1CCCCCC1  DYRK1A (Homo sapiens, UniProt Q13627)      > 50 nM
 3  O=C1NC(NC2CCCCCC2)=N/C1=C\c1ccc2cnccc2c1  DYRK1A (Homo sapiens, UniProt Q13627)      > 50 nM
 4  CC(C)C[C@H](CO)NC1=N/C(=C\c2ccc3nccnc3c2)C(=O)N1  DYRK1A (Homo sapiens, UniProt Q13627)   5 to 10 nM
 5  Cc1cnc(CNC2=N/C(=C\c3ccc4ncccc4c3)C(=O)N2)cn1  DYRK1A (Homo sapiens, UniProt Q13627)      > 50 nM
 6  COC[C@@H](CC(C)C)NC1=N/C(=C\c2ccc3ncncc3c2)C(=O)N1  DYRK1A (Homo sapiens, UniProt Q13627)      > 50 nM
 7  O=C1NC(N[C@H]2CCCOC2)=N/C1=C\c1ccc2nccnc2c1  DYRK1A (Homo sapiens, UniProt Q13627)      > 50 nM
 8  O=C1NC(NC23CC4CC(CC(O)(C4)C2)C3)=N/C1=C\c1ccc2nccnc2c1  DYRK1A (Homo sapiens, UniProt Q13627)       < 5 nM
 9  NC[C@@H](NC1=N/C(=C\c2ccc3nccnc3c2)C(=O)N1)c1ccccc1 [Compound 29, dihydrochloride]  DYRK1A (Homo sapiens, UniProt Q13627)  25 to 50 nM
10  CCOC[C@@H](CC(C)C)NC1=N/C(=C\c2ccc3nccnc3c2)C(=O)N1  DYRK1A (Homo sapiens, UniProt Q13627)  10 to 25 nM
11  Cc1csc(CNC2=N/C(=C\c3ccc4nccnc4c3)C(=O)N2)n1  DYRK1A (Homo sapiens, UniProt Q13627)      > 50 nM
12  Cn1ccc(NC2=N/C(=C\c3ccc4cnccc4c3)C(=O)N2)n1  DYRK1A (Homo sapiens, UniProt Q13627)      > 50 nM
13  O=C1NC(N[C@@H]2CCCOC2)=N/C1=C\c1ccc2cnccc2c1  DYRK1A (Homo sapiens, UniProt Q13627)      > 50 nM
14  COC[C@H](NC1=N/C(=C\c2ccc3cnncc3c2)C(=O)N1)c1ccccc1  DYRK1A (Homo sapiens, UniProt Q13627)      > 50 nM
15  O=C1NC(NC23CC4CC(CC2C4)C3)=N/C1=C\c1ccc2nccnc2c1  DYRK1A (Homo sapiens, UniProt Q13627)   5 to 10 nM
16  COC[C@@H](CC(C)C)NC1=N/C(=C\c2ccc3ncccc3n2)C(=O)N1  DYRK1A (Homo sapiens, UniProt Q13627)      > 50 nM
17   O=C1NC(NC2CCCCC2)=N/C1=C\c1ccc2cnccc2c1  DYRK1A (Homo sapiens, UniProt Q13627)      > 50 nM
18  CC(C)C[C@H](CO)NC1=N/C(=C\c2ccc3cnccc3c2)C(=O)N1  DYRK1A (Homo sapiens, UniProt Q13627)      > 50 nM

Data provenance is patent US20250340538A1.
